These measurements were taken from ChEMBL document CHEMBL1649147.

System: Staphylococcus epidermidis
Assay: Antibacterial activity against methicillin-susceptible coagulase-negative Staphylococcus epidermidis 051 by broth macrodilution method
Format: functional
readout type: MIC (µg/mL)
Answer with a number only, understood to be in µg/mL.

Please review the following examples before continuing.
compound	MIC [µg/mL]
COc1cc(Cc2cnc(N)nc2N)cc(/C=C/C(=O)N2N=Cc3ccccc3C2c2cnc(N(C)C)nc2)c1OC (stereo not given)	0.125
CO[C@H]1/C=C/O[C@@]2(C)Oc3c(C)c(O)c4c(O)c(c(/C=N/N5CCN(C)CC5)c(O)c4c3C2=O)NC(=O)/C(C)=C\C=C\[C@H](C)[C@H](O)[C@@H](C)[C@@H](O)[C@@H](C)[C@H](OC(C)=O)[C@@H]1C [RIFAMPIN]	0.016
CC(=O)NC[C@H]1CN(c2ccc(N3CCOCC3)c(F)c2)C(=O)O1 [LINEZOLID]	2
CN(C)c1ccc(O)c2c1C[C@H]1C[C@H]3[C@H](N(C)C)C(O)=C(C(N)=O)C(=O)[C@@]3(O)C(O)=C1C2=O [MINOCYCLINE]	0.125

// lookup MIC for COc1cc(Cc2cnc(N)nc2N)cc(OC)c1OC [TRIMETHOPRIM] 128
